B1: glmS ribozyme (parent)
chain: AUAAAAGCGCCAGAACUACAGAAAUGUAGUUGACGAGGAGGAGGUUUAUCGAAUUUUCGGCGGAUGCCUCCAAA

variants of: B1; assay: self-cleavage kobs at 640 uM GlcN6P; higher = faster cleavage; RNA array; conditions: with glucosamine-6-phosphate
This sample holds only a part of the variants without activity.
Reported endpoint: self-cleavage kobs at 640 uM GlcN6P (s⁻¹)
Kindly provide the numeric value in s⁻¹ only, without the unit symbol.

Solved cases below.
>>> measured_result("AUAAAAGCGCCAGAACUACAGAAAUGUAGUUGACGAGGAGGAGGUUUAUCGAUUUUUCGGCGGAUGCAUCCAAA [A53U C68A]")
"6.67e-05"
>>> measured_result("AUAAAAGCGCCAGAACUACAGAAAUGUAGUUGACGAGGAGGAGGUUUUUCGAAUGUUCGGCGGAUGCCUCCAAA [A48U U55G]")
"7.42e-05"

Q: Data request, read-out self-cleavage kobs at 640 uM GlcN6P, for AUAAAAGCGCCAGAACUACAGAAAUGUAGUUGACGAGGAGGAGGUUUAUCGAGUUUUCGGCGGUUGCCUCCAAA [A53G A64U]
Ans: 3.12e-05

Q: Now the same for AUAAAAGCGCCGGAACUACAGAAAUGUAGUUGACGAGGAGGAGGUUUAUCGAAUCUUCGGCGGAUGCCUCCAAA [A12G U55C]
Ans: 0.000118

Q: Now the same for AUAAAAGCGCCAGAACUACAGAAAUGUAGUUGACGAGGAGGAGUUUUAUCGAAUUUUCGGCGGGUGCCUCCAAA [G44U A64G]
Ans: 9.74e-05

Q: Now the same for CUAAAAGCGCCAGAACUACAGAAAUGUAGGUGACGAGGAGGAGGUUUAUCGAAUUUUCGGCGGAUGCCUCCAAA [A1C U30G]
Ans: 0.00402
